endpoint: melting point

Would you please look over these solved cases?
- compound: "CC(C)c1ccc(NC(=O)c2cccnc2Nc2cccc(C(F)(F)F)c2)cc1 [C2]"
  value.reported: "161 to 162 °C"
- compound: "CNC(=O)c1c(Cl)cccc1NC(=O)c1ccccc1Nc1cccc(C(F)(F)F)c1 [B12]"
  value.reported: "178 to 179 °C"
- compound: "O=C(Nc1ccccn1)c1ccccc1Nc1cccc(C(F)(F)F)c1 [C9]"
  value.reported: "65 to 66 °C"

State its melting point: CNC(=O)c1ccc(Cl)cc1NC(=O)c1ccccc1Nc1cccc(C(F)(F)F)c1 [B8]
152 to 153 °C

State its melting point: NC(=O)c1ccc(Cl)cc1NC(=O)c1ccccc1Nc1cccc(C(F)(F)F)c1 [B7]
176 to 177 °C

====

assay.name: MTT in vitro cytotoxicity assay, MARC145
Type: cell-based, African green monkey
conditions: African green monkey, MARC145 cells (kidney cell line, subclone of MA-104), Table 3; MTT; mean ± S.D.
endpoint: IC50 (µM)
Return type: number; implicit unit µM.

- molecule: "O=c1[nH]cc(F)c(=O)[nH]1 [5-FU, 5-Fluorouracil, reference compound]"
  measurement.units: "µM"
  IC50: 99

Please examine the following record next.
State its IC50: O=C(Nc1ccc(C(F)(F)F)cc1)c1cccnc1Nc1cccc(C(F)(F)F)c1
57.7

====

System: HepG2 (human hepatocellular liver carcinoma cell line)
assay.name: MTT in vitro cytotoxicity assay, HepG2
Assay type: cell-based
conditions: HepG2, Table 3, MTT, mean ± S.D.
Protocol: The lead molecules A2 and all newly prepared diarylamine derivatives B1-13 and C1-11 were evaluated for their in vitro cytotoxic effects against SGC-7901, A875, HepG2 and MARC145 cell lines by the classical MTT [3-(4,5-dimethylthiazol-2-yl)-2,5-diphenyl tetrazolium bromide] assay ([Alley et al., 1988]; [Ke et al., 2012]; [Shi et al., 2012]; [Yu et al., 2015]; [Ke et al., 2019]; [Xu et al., 2019]; [Huang et al., 2021]) using 5-FU (5-Fluorouracil) as a control. […]
Some compounds, each annotated with its measured IC50.
Return type: number; implicit unit µM.

Would you please look over these solved cases?
- compound: "O=C(Nc1ccnc(Cl)c1)c1ccccc1Nc1cccc(C(F)(F)F)c1 [C10]"
  assayed.target: "HepG2 (human hepatocellular liver carcinoma cell line)"
  endpoint: "IC50"
  value.reported: 21.9
- compound: "O=c1[nH]cc(F)c(=O)[nH]1 [5-FU, 5-Fluorouracil, reference compound]"
  assayed.target: "HepG2 (human hepatocellular liver carcinoma cell line)"
  endpoint: "IC50"
  value.reported: 91.8
- compound: "O=C(Nc1cccc(C(F)(F)F)c1)c1ccccc1Nc1cccc(C(F)(F)F)c1 [C5]"
  assayed.target: "HepG2 (human hepatocellular liver carcinoma cell line)"
  endpoint: "IC50"
  value.reported: 10.1
- compound: "O=C(Nc1cccc(C(F)(F)F)c1)c1cccnc1Nc1cccc(C(F)(F)F)c1 [C6]"
  assayed.target: "HepG2 (human hepatocellular liver carcinoma cell line)"
  endpoint: "IC50"
  value.reported: 9.99
- compound: "O=C(Nc1ccccn1)c1ccccc1Nc1cccc(C(F)(F)F)c1 [C9]"
  assayed.target: "HepG2 (human hepatocellular liver carcinoma cell line)"
  endpoint: "IC50"
  value.reported: 64.2
- compound: "O=C(Nc1ccc(Cl)nc1)c1cccnc1Nc1cccc(C(F)(F)F)c1 [C11]"
  assayed.target: "HepG2 (human hepatocellular liver carcinoma cell line)"
  endpoint: "IC50"
  value.reported: 10.2

State its IC50: O=C(Nc1ccc(C(F)(F)F)cc1)c1ccccc1Nc1cccc(C(F)(F)F)c1 [C7]
10.4

State its IC50: O=C(Nc1ccccc1C(F)(F)F)c1ccccc1Nc1cccc(C(F)(F)F)c1 [C3]
24.2

Hello, the source for this data is paper PMC9315260, in case you need it.
